molecular target: pooled human IgG
property-measured: Enzyme Activity Endpoint Assay: Fc (ng/µL)
Answers are plain numbers, in ng/µL.

Query: Enzyme Activity Endpoint Assay: Fc for PRT-6 (protein) MANQEIRYSEVTPYHVTSVWTKGVTPPANFTQGEDVFHAPYVANQGWYDITKTFNGKDDLLCGAATAGNMLHWWFDQNKEQIERYLKEHPEKQKINFNGEQMFDVKEAIDTKNSQLDSKLFEYFKEKAFPYLSTKHLGVFPDHVIDMFINGYRLSLTNHGPTPVKEGSKDPRGGIFDAVFTRGDQSKLLTSRHDFKEKNLKEISDLIKKELTEGKALGLSHTYANVRINHVINLWGADFDSNGNLKAIYVTDSDSNASIGMKKYFVGVNSAGKVAISAKEIEGDNIGAQVLGLFTLSTGQDIWNQTN ?
Response: 129
